# target-under-test: thrombopoietin (TPO) receptor (Homo sapiens)
# Sequence (P40238 26-635): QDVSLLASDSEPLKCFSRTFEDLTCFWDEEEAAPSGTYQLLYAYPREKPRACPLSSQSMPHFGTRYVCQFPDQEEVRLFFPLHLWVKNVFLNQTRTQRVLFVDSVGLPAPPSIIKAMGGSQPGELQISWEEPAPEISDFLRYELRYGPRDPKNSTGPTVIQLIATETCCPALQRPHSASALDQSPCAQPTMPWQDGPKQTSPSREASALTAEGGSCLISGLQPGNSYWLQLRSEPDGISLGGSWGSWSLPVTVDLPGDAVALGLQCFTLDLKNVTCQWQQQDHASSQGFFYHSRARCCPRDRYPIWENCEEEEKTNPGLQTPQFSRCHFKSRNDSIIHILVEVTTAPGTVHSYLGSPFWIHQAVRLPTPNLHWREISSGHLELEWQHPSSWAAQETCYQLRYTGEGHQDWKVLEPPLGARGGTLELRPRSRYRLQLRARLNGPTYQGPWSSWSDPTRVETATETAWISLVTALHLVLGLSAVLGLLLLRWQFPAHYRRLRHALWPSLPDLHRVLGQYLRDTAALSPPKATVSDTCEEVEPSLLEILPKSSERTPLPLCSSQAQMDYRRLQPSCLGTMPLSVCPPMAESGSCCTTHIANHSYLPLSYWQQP
# assay-details: Stimulation of proliferation of TPO-dependent cell line UT7/EPO-mpl (WST-8)
# experimental-setup: concentration that yields a growth rate corresponding to 50% of the growth of UT-7/EPO-mpl observed in the presence of 10 ng/ml TPO
observed-property: EC50
Number first, unit second: that is the form wanted.

Which EC50 is reported with thrombopoietin (TPO) receptor (Homo sapiens) for this entry: C/C(=N\NC(=S)Nc1ccc2[nH]c(=O)[nH]c2c1)c1csc(-c2ccc(Cl)c(Cl)c2)c1O ? 5.69 nM

Kindly state the measured EC50 obtained for C/C(=N\NC(=S)Nc1cccc(C(=O)O)c1)c1csc(-c2ccc(C)c(C)c2)c1O with thrombopoietin (TPO) receptor (Homo sapiens). 7.05 nM

Query the reported EC50 for thrombopoietin (TPO) receptor (Homo sapiens); item: C/C(=N\NC(=O)c1ccc2cc(C(=O)O)ccc2c1)c1csc(-c2ccc(Cl)c(Cl)c2)c1O 7.41 nM

Form: Entry = C/C(=N\NC(=S)Nc1ccccc1CC(N)=O)c1nn(C)c(-c2ccc(C(F)(F)F)cc2)c1O | System = thrombopoietin (TPO) receptor (Homo sapiens) | EC50 = ____ 7.95 nM

Find EC50 (thrombopoietin (TPO) receptor (Homo sapiens)) for the entry C/C(=N\NC(=O)c1ccc(C(=O)O)cc1N)c1nn(C)c(-c2ccc(C(F)(F)F)cc2)c1O 1.56 nM

What measured EC50 is associated with C/C(=N\NC(=O)c1ccc(C(=O)NCCCN(C)C)s1)c1csc(-c2ccc(Cl)c(Cl)c2)c1O on thrombopoietin (TPO) receptor (Homo sapiens)? 4.08 nM

Lab request: please report EC50 under test system thrombopoietin (TPO) receptor (Homo sapiens) for C/C(=N\NC(=O)c1sc(N)nc1C(F)(F)F)c1csc(-c2ccc(Cl)c(Cl)c2)c1O 5.65 nM

Origin of values: patent US7576115B2
